# Tested on: SK-MEL-28 melanoma
# METHOD NOTES: NCI tumour cell line growth inhibition, 48 h; in the data active = GI50 below about 0.43 µM; inactive = the rest
I would appreciate it if you answered using one of these outcomes: y = active, n = inactive

Recorded results for 6 compounds are shown here.
COMPOUND	CLASSIFICATION
C/C1=C\[C@H](C)C[C@H](C)OC(=O)C[C@H](c2ccc(O)cc2)NC(=O)[C@@H](Cc2c(Br)[nH]c3ccccc23)N(C)C(=O)[C@H](C)NC(=O)[C@@H](C)C1	y
Cc1ccc(Cl)cc1Nc1nc(C(F)(F)F)ccc1C(=O)Nc1cccc(C(F)(F)F)c1	n
O=C1c2ccccc2C(=O)c2c1ccc(C(Br)Br)c2[N+](=O)[O-]	n
CC(=O)OCC1OC(OC2C(COC(C)=O)OC(OCCC[S-])C(OC(C)=O)C2OC(C)=O)C(OC(C)=O)C(OC(C)=O)C1OC(C)=O.[Au+].c1ccc(CN2[CH-]N(Cc3ccccc3)C(c3ccccc3)=C2c2ccccc2)cc1 (stereo not drawn)	n
O=C1c2[nH]cc(CN3CCNCC3)c2C(=O)c2c1c(O)c1ccccc1c2O	n
CC1(C)N=C(N)N=C(N)N1c1cccc(C#N)c1	n

Recorded call for Oc1ccc2oc3ncc(Cl)c(-c4ccccc4)c3c2c1 ?
n

Recorded call for COc1ccc(SC2c3cc(OC)c(OC)cc3Oc3nc(N)c(C#N)c(N)c32)cc1 (stereo not drawn) ?
n
